- Tested on: BEND3 (mouse)
- experiment_description: Cell proliferation inhibition
- Type: cell-based
- run_conditions: EC, read-out: IC50s of proliferation inhibition
assay_metric: IC50 (nM)
Hi! Could you send only the number? It should be in nM, unit omitted.

Name the recorded IC50 of the molecule listed here: "CO[C@@H]1[C@H](OC(=O)/C=C/C=C/C=C/C=C/C(=O)O)CC[C@]2(CO2)[C@H]1[C@@]1(C)O[C@@H]1CC=C(C)C"
2

---

- target: MetAP2 (Homo sapiens, UniProt P50579)
- Construct: gp67 secretion signal of vector pAcGP67B (N); made in house; host or cells: baculovirus-infected Sf9 insect cells, secreted into medium
- Sequence (P50579 whole entry): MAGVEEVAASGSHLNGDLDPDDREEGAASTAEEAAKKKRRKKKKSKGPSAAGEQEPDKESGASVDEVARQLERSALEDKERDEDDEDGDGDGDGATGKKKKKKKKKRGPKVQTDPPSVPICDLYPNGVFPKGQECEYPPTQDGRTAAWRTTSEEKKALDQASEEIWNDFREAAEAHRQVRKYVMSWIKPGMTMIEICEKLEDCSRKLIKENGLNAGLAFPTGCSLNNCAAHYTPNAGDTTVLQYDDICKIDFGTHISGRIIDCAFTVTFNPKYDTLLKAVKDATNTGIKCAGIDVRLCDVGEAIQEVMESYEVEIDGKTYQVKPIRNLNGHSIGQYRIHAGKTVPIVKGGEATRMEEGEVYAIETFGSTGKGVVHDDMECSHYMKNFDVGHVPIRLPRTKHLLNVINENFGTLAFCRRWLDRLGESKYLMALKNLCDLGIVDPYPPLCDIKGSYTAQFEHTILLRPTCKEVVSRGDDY
- experiment_description: MetAP2 enzyme inhibition, coupled-enzyme chromogenic assay
- Format: biochemical
- run_conditions: other metal ions including Zn2+, Fe2+, and Ni2+; read-out: IC50 on MetAP2 with many other metal ions
assay_metric: IC50

Give a short answer stating reported IC50 for c1ccc2cc(CSc3nnc[nH]3)ccc2c1 [A310840] .
0.01 to 0.117 µM

---

- System: CHP-134
- experiment_description: Cell proliferation inhibition
- Format: cell-based
- run_conditions: Homo sapiens, Tumor cells, read-out: IC50s of proliferation inhibition
assay_metric: IC50 (nM)
Dear colleague, please return just the value in nM, with no unit written.

Please report the measured IC50 for "CO[C@@H]1[C@H](OC(=O)/C=C/C=C/C=C/C=C/C(=O)O)CC[C@]2(CO2)[C@H]1[C@@]1(C)O[C@@H]1CC=C(C)C"
1

---

- target: MetAP2 (Homo sapiens, UniProt P50579)
- Construct: gp67 secretion signal of vector pAcGP67B (N); made in house; host or cells: baculovirus-infected Sf9 insect cells, secreted into medium
- experiment_description: MetAP2 enzyme inhibition, coupled-enzyme chromogenic assay
- Type: biochemical
- run_conditions: without added metals; read-out: IC50 on the baseline activity of MetAP2
assay_metric: IC50 (nM)
Please reply with the bare figure in nM and do not write the unit itself.

Quote MetAP2 (Homo sapiens, UniProt P50579) IC50 for entry "c1ccc2cc(CSc3nnc[nH]3)ccc2c1" .
60

---

- Tested on: DLD-1
- experiment_description: Cell proliferation inhibition
- Format: cell-based
- run_conditions: Homo sapiens, Tumor cells, read-out: IC50s of proliferation inhibition
assay_metric: pIC50
Conceptually, pIC50 converts a concentration in mol/L into minus its log10.

Item "CO[C@@H]1[C@H](OC(=O)/C=C/C=C/C=C/C=C/C(=O)O)CC[C@]2(CO2)[C@H]1[C@@]1(C)O[C@@H]1CC=C(C)C" : provide pIC50
8.70

The origin of these recorded values is patent US20040077031A1.
